# assay summary: Apparent oral clearance in HIV-negative human serum at 300 mg, po administered every 12 hrs coadministered with […] every 24 hrs
# Type: ADME, organism-based
value kind: CL/F (mL/min)

* COC(=O)N[C@H](C(=O)N[C@@H](Cc1ccccc1)[C@@H](O)CN(Cc1ccc(-c2ccccn2)cc1)NC(=O)[C@@H](NC(=O)OC)C(C)(C)C)C(C)(C)C | 808

----------
# assay summary: AUC (24 hrs) in HIV-negative human at 300 mg, po administered every 12 hrs coadministered with 600 mg of rifampin every 24 hrs
# Assay type: ADME, organism-based
# Set-up: dose 300 mg, time < 24 hr, route oral
# run parameters: plasma
value kind: AUC at 24 h (ng·h/mL)

• COC(=O)N[C@H](C(=O)N[C@@H](Cc1ccccc1)[C@@H](O)CN(Cc1ccc(-c2ccccn2)cc1)NC(=O)[C@@H](NC(=O)OC)C(C)(C)C)C(C)(C)C = 10300

Source of measurements: ChEMBL document CHEMBL1143406
